Give pIC50 for every item shown.
EXPERIMENTAL SYSTEM: PI3Kδ (p110δ/p85α) Recombinant Human Protein (Homo sapiens (Human))
Sequence (O00329 whole entry): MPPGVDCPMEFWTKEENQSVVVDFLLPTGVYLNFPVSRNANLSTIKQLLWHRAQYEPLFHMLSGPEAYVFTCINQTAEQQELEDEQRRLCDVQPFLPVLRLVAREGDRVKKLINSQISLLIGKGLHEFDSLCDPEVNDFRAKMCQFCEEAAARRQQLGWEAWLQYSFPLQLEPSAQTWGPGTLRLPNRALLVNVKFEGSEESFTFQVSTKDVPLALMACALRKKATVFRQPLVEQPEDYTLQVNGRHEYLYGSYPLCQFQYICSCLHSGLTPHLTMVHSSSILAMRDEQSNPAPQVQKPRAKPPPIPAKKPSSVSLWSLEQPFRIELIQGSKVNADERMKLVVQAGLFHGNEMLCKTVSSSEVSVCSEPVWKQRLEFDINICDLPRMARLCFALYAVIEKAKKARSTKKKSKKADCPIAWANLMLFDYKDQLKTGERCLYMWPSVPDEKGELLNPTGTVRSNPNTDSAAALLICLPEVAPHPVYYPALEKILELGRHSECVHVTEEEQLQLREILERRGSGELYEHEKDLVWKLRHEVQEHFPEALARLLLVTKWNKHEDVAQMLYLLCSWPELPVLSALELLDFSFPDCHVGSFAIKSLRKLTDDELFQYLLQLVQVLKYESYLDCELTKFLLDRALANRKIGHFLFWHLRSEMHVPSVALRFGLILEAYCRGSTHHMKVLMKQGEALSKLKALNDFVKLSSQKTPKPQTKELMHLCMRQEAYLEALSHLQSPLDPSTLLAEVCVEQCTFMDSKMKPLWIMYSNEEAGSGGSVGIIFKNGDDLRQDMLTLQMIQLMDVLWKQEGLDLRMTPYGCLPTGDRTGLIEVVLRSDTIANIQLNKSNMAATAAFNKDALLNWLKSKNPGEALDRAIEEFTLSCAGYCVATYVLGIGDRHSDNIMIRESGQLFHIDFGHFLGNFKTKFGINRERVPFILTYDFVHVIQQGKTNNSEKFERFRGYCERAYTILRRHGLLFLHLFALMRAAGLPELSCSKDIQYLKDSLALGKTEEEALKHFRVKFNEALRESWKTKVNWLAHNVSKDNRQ
Sequence (P27986 whole entry partner): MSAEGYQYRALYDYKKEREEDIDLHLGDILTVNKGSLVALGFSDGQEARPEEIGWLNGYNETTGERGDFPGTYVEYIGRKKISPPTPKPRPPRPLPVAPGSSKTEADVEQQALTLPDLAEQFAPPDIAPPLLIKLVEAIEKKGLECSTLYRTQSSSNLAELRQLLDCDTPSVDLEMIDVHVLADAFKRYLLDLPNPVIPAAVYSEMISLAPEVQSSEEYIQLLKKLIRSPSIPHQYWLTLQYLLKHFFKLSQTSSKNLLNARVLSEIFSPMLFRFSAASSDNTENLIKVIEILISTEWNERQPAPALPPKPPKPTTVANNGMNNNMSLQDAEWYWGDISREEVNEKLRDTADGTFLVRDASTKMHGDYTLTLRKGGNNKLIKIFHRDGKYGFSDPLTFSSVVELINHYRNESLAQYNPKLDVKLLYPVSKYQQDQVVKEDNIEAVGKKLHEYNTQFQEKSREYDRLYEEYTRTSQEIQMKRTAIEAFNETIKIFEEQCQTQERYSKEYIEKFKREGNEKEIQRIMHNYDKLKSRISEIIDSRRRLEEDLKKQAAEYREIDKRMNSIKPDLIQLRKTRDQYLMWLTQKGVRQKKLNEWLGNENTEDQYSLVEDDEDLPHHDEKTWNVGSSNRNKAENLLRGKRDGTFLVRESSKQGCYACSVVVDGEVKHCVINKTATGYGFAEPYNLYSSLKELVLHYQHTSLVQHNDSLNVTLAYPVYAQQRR
ASSAY TEXT: PI3Kδ Scintillation Proximity Assay
STUDY CONDITIONS: 20 μM PIP2, 2 μM ATP, 3.4 nM PI3Kδ, 120 min; read-out: PI3K-delta SPA IC50
pIC50: −log10 of the molar value.

Guide cases for pIC50, answers given:
* Cc1ncc(-c2ccc3nc(-c4nc5ccccc5[nH]4)oc3c2)cc1NS(=O)(=O)CC(F)(F)F [Example 76, bis(trifluoroacetate)] | > 6.60
* COc1cncc(-c2ccc3nc(-c4cnc(C5CCOC5)[nH]4)oc3c2)c1 (stereo not shown) | ≤ 5.30
* CC(C)S(=O)(=O)Nc1cncc(-c2ccc3nc(-c4nc5ccccc5[nH]4)oc3c2)c1 | > 5.30

Batch of 5 compounds: report pIC50 for each.
1. O=C(O)Cc1cncc(-c2ccc3nc(-c4nc5ccccc5[nH]4)oc3c2)c1
2. Oc1cncc(-c2ccc3nc(-c4nc5ccccc5[nH]4)oc3c2)c1
3. CCS(=O)(=O)Nc1cc(-c2ccc3nc(-c4nc5ccccc5[nH]4)oc3c2)cnc1F
4. CS(=O)(=O)c1cncc(-c2ccc3nc(-c4nc5ccccc5[nH]4)oc3c2)c1
5. c1ccc2[nH]c(-c3nc4ccc(-c5ccc6[nH]ncc6c5)cc4o3)nc2c1

1. > 5.30
2. > 5.30
3. > 6.00
4. > 5.30
5. > 5.30
